Biological target: B1R receptor of the rat (Rattus norvegicus)
Construct: host or cells: CHO K1 cells (Chinese hamster ovary), stably transfected
Sequence (P97583 whole entry): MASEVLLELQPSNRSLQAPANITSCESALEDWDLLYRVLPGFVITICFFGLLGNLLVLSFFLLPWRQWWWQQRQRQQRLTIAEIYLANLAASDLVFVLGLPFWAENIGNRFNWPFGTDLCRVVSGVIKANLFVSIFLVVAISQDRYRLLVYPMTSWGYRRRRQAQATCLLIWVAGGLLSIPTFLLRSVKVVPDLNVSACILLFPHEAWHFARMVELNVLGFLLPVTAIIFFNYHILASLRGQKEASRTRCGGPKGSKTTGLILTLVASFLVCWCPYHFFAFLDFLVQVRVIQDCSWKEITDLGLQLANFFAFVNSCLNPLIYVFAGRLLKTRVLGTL
Assay: Functional study on the bradykinin receptor 1 (B1R), FLIPR Ca2+ assay, rB1R cells
Format: cell-based
Details: CHO-K1, test substance 10 μM, agonist Des-Arg9-bradykinin 100 nM, % inhibition compared with the maximum achievable inhibition, read-out: B1R Antagonism, rat [10 μM] % Inhibition
Each item that follows carries a reported inhibition at 10 µM.
Write the answer as a number in %, unit excluded.

> print(dat)
                                   molecule  unitofmeasure  quantitativeresult
1  O=C(COCC1CCCN1S(=O)(=O)c1c(Cl)cc(Cl)cc1Cl)NCCN1CCCC1 (stereo not shown)              %                41.6
2  COc1ccc(S(=O)(=O)N2Cc3ccccc3C[C@H]2COCC(=O)N2CCN(C3CCN(C)CC3)CC2)cc1              %                  63
3  COc1ccc(N2CCN(C(=O)COCC3CCCN3S(=O)(=O)c3c(Cl)cccc3Cl)CC2)cc1 (stereo not shown)              %                 101

Incoming: Read off the recorded inhibition at 10 µM for Cc1ccc(C)n1CCN1CCN(C(=O)COCC2CCCN2S(=O)(=O)c2c(Cl)cccc2Cl)CC1 (stereo not shown)
Outgoing: 89.2

Incoming: Kindly indicate its recorded inhibition at 10 µM. Item: Cc1cc(Br)cc(C)c1S(=O)(=O)N1CCCCC1COCC(=O)N1CCN(C2CCN(C)CC2)CC1 (stereo not shown)
Outgoing: 100

Incoming: Input CN1CCN(C2CCN(C(=O)COCC3CCCN3S(=O)(=O)c3c(Cl)cccc3Cl)CC2)CC1 (stereo not shown) , output reported inhibition at 10 µM.
Outgoing: 91

Incoming: Return inhibition at 10 µM (reported value) for this molecule: COc1cc(C)c(S(=O)(=O)N2CCCCC2COCC(=O)N(Cc2ccccc2)c2cc(C)ccn2)c(C)c1 (stereo not shown)
Outgoing: 102

###

Items are presented alongside their recorded inhibition at 10 µM.
Biological target: human B1R receptor (Homo sapiens, UniProt P46663)
Construct: host or cells: CHO K1 cells (Chinese hamster ovary), stably transfected
Sequence (P46663 1-353): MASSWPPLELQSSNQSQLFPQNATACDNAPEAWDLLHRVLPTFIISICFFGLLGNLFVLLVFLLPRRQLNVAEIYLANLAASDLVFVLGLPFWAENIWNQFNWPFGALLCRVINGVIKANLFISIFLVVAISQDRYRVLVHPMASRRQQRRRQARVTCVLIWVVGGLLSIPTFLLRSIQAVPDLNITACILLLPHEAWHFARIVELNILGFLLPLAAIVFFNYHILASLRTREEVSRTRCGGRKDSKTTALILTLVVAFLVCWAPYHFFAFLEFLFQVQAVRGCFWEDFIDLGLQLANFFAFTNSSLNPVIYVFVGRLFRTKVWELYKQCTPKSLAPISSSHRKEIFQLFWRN
Assay: Functional study on the bradykinin receptor 1 (B1R), FLIPR Ca2+ assay, hB1R cells
Assay type: cell-based
Conditions: CHO-K1, test substance 10 μM, agonist Lys-Des-Arg9-bradykinin 0.5 nM, % inhibition compared with the maximum achievable inhibition, read-out: B1R Antagonism, human [10 μM] % Inhibition
// return numeric value only (unit: %, not printed)

Study these solved cases before continuing.
> print(dat)
                                   compound          readouttype  quantitativeresult
1  COc1cc(C)c(S(=O)(=O)N2CCCC2COCC(=O)NCc2ccc(CN3CCOCC3)cc2)c(C)c1 (stereo not shown)  inhibition at 10 µM                63.2
2  COc1ccc(C(CNC(=O)COCC2CCCCN2S(=O)(=O)c2c(C)cc(OC)cc2C)N2CCCC2)cc1 (stereo not shown)  inhibition at 10 µM                 102
3  COc1cc(C)c(S(=O)(=O)N2CCCCC2COCC(=O)N(C)Cc2ccc(C3=NCCN3)cc2)c(C)c1.Cl (stereo not shown) [Example 193, hydrochloride]  inhibition at 10 µM                 104

Alright, here's another compound for you.
Incoming: Consider the compound COc1cc(C)c(S(=O)(=O)N2CCCCC2COCC(=O)NCCCn2ccnc2)c(C)c1 (stereo not shown) and give its recorded inhibition at 10 µM.
Outgoing: 14.8

###

Biological target: human B1R receptor (Homo sapiens, UniProt P46663)
Construct: host or cells: CHO K1 cells (Chinese hamster ovary), stably transfected
Test: Functional study on the bradykinin receptor 1 (B1R), FLIPR Ca2+ assay, hB1R cells
Assay type: cell-based
Conditions: CHO-K1, test substance 10 μM, agonist Lys-Des-Arg9-bradykinin 0.5 nM, % inhibition compared with the maximum achievable inhibition, read-out: B1R Antagonism, human [10 μM] % Inhibition
Excerpt: The agonistic or antagonistic action of substances can be quantified on the bradykinin receptor 1 (B1R) of the species human and rat with ectopically expressing cell lines (CHO K1 cells) and with the aid of a Ca^2+-sensitive dye (Fluo-4) using a fluorescent imaging plate reader (FLIPR). […] The agonistic or antagonistic action of substances can be determined on the bradykinin receptor 1 (B1R) of the species human and rat using the following assay. […]
Recorded inhibition at 10 µM values for a group of compounds are listed next.
Return type: number; implicit unit %.

Look over these answered cases.
> print(dat)
                                   compound                               assaysystem          readouttype  quantitativeresult
1  COc1cc(C)c(S(=O)(=O)N2CCCCC2COCC(=O)N2CCCC2c2ccccn2)c(C)c1 (centres unmarked)  human B1R receptor (Homo sapiens, UniProt P46663)  inhibition at 10 µM                70.8
2  COc1cc(C)c(S(=O)(=O)N2CCCCC2COCC(=O)Nc2ccc(CN3CCC(C)CC3)cc2)c(C)c1 (centres unmarked)  human B1R receptor (Homo sapiens, UniProt P46663)  inhibition at 10 µM                97.3
3  COc1ccc(S(=O)(=O)N2CCCCC2COCC(=O)N2CCN(Cc3cccc(C)c3)CC2)cc1 (centres unmarked)  human B1R receptor (Homo sapiens, UniProt P46663)  inhibition at 10 µM                5.04
4  Cc1cc(C)c(S(=O)(=O)N2CCCCC2COCC(=O)N2CCCC2CN2CCCCC2)c(C)c1 (centres unmarked)  human B1R receptor (Homo sapiens, UniProt P46663)  inhibition at 10 µM                85.4
5  CN(C)Cc1ccc(CNC(=O)COCC2CCCN2S(=O)(=O)c2c(Cl)cc(Cl)cc2Cl)cc1 (centres unmarked)  human B1R receptor (Homo sapiens, UniProt P46663)  inhibition at 10 µM                  51
6  Cc1cc(Br)cc(C)c1S(=O)(=O)N1CCCCC1COCC(=O)N1CCN(c2ccncc2)CC1 (centres unmarked)  human B1R receptor (Homo sapiens, UniProt P46663)  inhibition at 10 µM                98.3
7  O=C(COCC1Cc2ccccc2CN1S(=O)(=O)c1ccccc1)Nc1cccc(N2CCOCC2)c1 (centres unmarked)  human B1R receptor (Homo sapiens, UniProt P46663)  inhibition at 10 µM                 103

Turning to the following compound.
Incoming: Give the measured inhibition at 10 µM for COc1cc(C)c(S(=O)(=O)N2CCCCC2COCC(=O)N2CCN(Cc3ccccc3F)CC2)c(C)c1 (centres unmarked)
Outgoing: 91

###

Molecular target: human B1R receptor (Homo sapiens)
Construct: host or cells: CHO K1 cells (Chinese hamster ovary), stably transfected
Assay: Functional study on the bradykinin receptor 1 (B1R), FLIPR Ca2+ assay, hB1R cells
Assay type: cell-based
Conditions: CHO-K1, test substance 10 μM, agonist Lys-Des-Arg9-bradykinin 0.5 nM, % inhibition compared with the maximum achievable inhibition, read-out: B1R Antagonism, human [10 μM] % Inhibition
Where a name gives a salt, the structure may show the parent alone.
readoutType: inhibition at 10 µM (%)
Just the number in %, nothing appended.

Use the examples below as a reference point.
> print(dat)
                                    compound  quantitativeresult
 1  COc1cc(C)c(S(=O)(=O)N2CCCCC2COCC(=O)N2CCCCC2CCN2CCOCC2)c(C)c1 (stereo not drawn) [Example 534]                 104
 2  Cc1c(S(=O)(=O)N2CCCCC2COCC(=O)N2CCN(C3CCN(C)CC3)CC2)sc2ccc(Cl)cc12 (stereo not drawn) [Example 151, dihydrochloride]                 107
 3  CC(C)N(Cc1ccc(N(C)C)cc1)C(=O)COCC1CCCCN1S(=O)(=O)c1c(Cl)cccc1Cl (stereo not drawn) [Example 530]                93.1
 4  O=C(COCC1CCCCN1S(=O)(=O)c1ccc(Br)cc1)N1CCN(c2ccncc2)CC1 (stereo not drawn) [Example 126]                46.4
 5  COc1cc(C)c(S(=O)(=O)N2CCCCC2COCC(=O)N2CCN(c3cccc(Cl)c3)CC2)c(C)c1 (stereo not drawn) [Example 511]                  87
 6  CN1CCC(N2CCN(C(=O)COCC3CCCCN3S(=O)(=O)c3ccc(Br)cc3)CC2)CC1 (stereo not drawn) [Example 123]                43.9
 7  COc1cc(C)c(S(=O)(=O)N2CCCCC2COCC(=O)NCCCCCN(C)C)c(C)c1 (stereo not drawn) [Example 250]                96.8
 8  CN1CCN(C2CCN(C(=O)COCC3Cc4ccccc4CN3S(=O)(=O)c3ccc(Cl)cc3Cl)CC2)CC1 (stereo not drawn) [Example 233]                 102
 9  COc1ccc(N2CCN(C(=O)COCC3CCCN3S(=O)(=O)c3c(C)cc(OC)cc3C)CC2)cc1 (stereo not drawn) [Example 308]                 105
10  COc1ccc(S(=O)(=O)N2c3ccccc3CC2COCC(=O)N2CCC(CCN3CCCCC3)CC2)cc1 (stereo not drawn) [Example 547]                77.4

Incoming: Provide one value: measured inhibition at 10 µM of Cc1cc(C)c(S(=O)(=O)N2Cc3ccccc3CC2COCC(=O)N2CCCN(Cc3ccccc3)CC2)c(C)c1 (stereo not drawn) [Example 67]
Outgoing: 55

Incoming: Identify measured inhibition at 10 µM associated with COc1cc(C)c(S(=O)(=O)N2CCCCC2COCC(=O)N2CCN(Cc3cnc(N(C)C)nc3)CC2)c(C)c1 (stereo not drawn) [Example 199]
Outgoing: 104

Incoming: Identify measured inhibition at 10 µM associated with COc1cc(C)c(S(=O)(=O)N2CCCCC2COCC(=O)Nc2cc(-c3cccs3)n[nH]2)c(C)c1 (stereo not drawn) [Example 539]
Outgoing: 38.8

Incoming: For the compound CN1CCN(c2ccc(CNC(=O)COCC3CCCCN3S(=O)(=O)c3c(Cl)cc(Cl)cc3Cl)cc2)CC1 (stereo not drawn) [Example 13] , give its reported inhibition at 10 µM.
Outgoing: 97.7

Incoming: Check the records and state inhibition at 10 µM for COc1cc(C)c(S(=O)(=O)N2CCCC2COCC(=O)N2CCN(CCc3ccccc3)CC2)c(C)c1 (stereo not drawn) [Example 310]
Outgoing: 106

Hello, the source for this data is patent US8435978B2, in case you need it.
